- assay-explanation: Volume of distribution at steady state in Sprague-Dawley rat at 1 mg/kg, iv and 10 mg/kg, po
- Assay type: ADME, organism-based
- study-conditions: in vivo, read-out: Vdss
Reported Vd is given for each of the following compounds.
The response must be a number in L/kg with no trailing unit.

{"columns": ["compound", "Vd, L/kg"],
 "data": [
  ["CN(C)CC[C@H](CSc1ccccc1)Nc1ccc(S(=O)(=O)Nc2ncnc3c2CCN(C2CCN(Cc4ccccc4-c4ccc(Cl)cc4)CC2)C3)cc1S(=O)(=O)C(F)(F)F", 8.6],
  ["CC(c1ccccc1-c1ccc(Cl)cc1)N1CCC(N2CCc3c(ncnc3NS(=O)(=O)c3ccc(N[C@H](CCN(C)C)CSc4ccccc4)c(S(=O)(=O)C(F)(F)F)c3)C2)CC1 (stereo partly drawn)", 5.28]
]}

Fill in the blank: the reported Vd of CN(C)CC[C@H](CSc1ccccc1)Nc1ccc(S(=O)(=O)NC2=NS(=O)(=O)c3cc(N4CCN(Cc5ccccc5-c5ccc(Cl)cc5)CC4)ccc32)cc1[N+](=O)[O-] is ____.
0.09

----------
- measured-on: Apoptosis regulator Bcl-2 (Homo sapiens, UniProt P10415)
- Sequence (P10415 whole entry): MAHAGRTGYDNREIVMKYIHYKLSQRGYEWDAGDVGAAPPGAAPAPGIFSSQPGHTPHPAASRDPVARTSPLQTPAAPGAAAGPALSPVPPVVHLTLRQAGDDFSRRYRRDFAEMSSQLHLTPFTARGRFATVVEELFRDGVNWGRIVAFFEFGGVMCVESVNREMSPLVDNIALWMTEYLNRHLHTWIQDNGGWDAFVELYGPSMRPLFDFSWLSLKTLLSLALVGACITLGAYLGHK
measured-metric: Kd (nM)
The response must be a number in nM with no trailing unit.

Here is how some compounds turned out for Kd.
{"columns": ["compound-smiles", "value-unit", "recorded-result"],
 "data": [
  ["CN(C)CC[C@H](CSc1ccccc1)Nc1ccc(S(=O)(=O)Nc2ncnc3c2CCN(C2CCN(Cc4cc(F)ccc4-c4ccc(Cl)cc4)CC2)C3=O)cc1S(=O)(=O)C(F)(F)F", "nM", 104],
  ["CN(C)CC[C@H](CSc1ccccc1)Nc1ccc(S(=O)(=O)Nc2nc(C(F)(F)F)nc3c2CCN(C2CCN(Cc4ccccc4-c4ccc(Cl)cc4)CC2)C3)cc1S(=O)(=O)C(F)(F)F", "nM", 10]
]}

Please examine the following record next.
Short answer please: Kd, Apoptosis regulator Bcl-2 (Homo sapiens, UniProt P10415), entry CN(C)CC[C@H](CSc1ccccc1)Nc1ccc(S(=O)(=O)Nc2nc(Cl)nc3c2CCN(C2CCN(Cc4ccccc4-c4ccc(Cl)cc4)CC2)C3)cc1S(=O)(=O)C(F)(F)F
17

----------
- assay-explanation: Solubility of compound in fasted state simulated intestinal fluid
measured-metric: solubility (µM)
The response must be a number in µM with no trailing unit.

{"columns": ["compound-smiles", "recorded-result"],
 "data": [
  ["CN(C)CC[C@H](CSc1ccccc1)Nc1ccc(S(=O)(=O)Nc2ncnc3c2CCN(C2CCN(Cc4cc(F)ccc4-c4ccc(Cl)cc4)CC2)C3)cc1S(=O)(=O)C(F)(F)F", 25]
]}

Fill in the blank: the reported solubility of CN(C)CC[C@H](CSc1ccccc1)Nc1ccc(S(=O)(=O)Nc2nc(Cl)nc3c2CCN(C2CCN(Cc4ccccc4-c4ccc(Cl)cc4)CC2)C3)cc1S(=O)(=O)C(F)(F)F is ____.
22

Now the compound CN(C)CC[C@H](CSc1ccccc1)Nc1ccc(S(=O)(=O)Nc2nnc3n2CCN(C2CCN(Cc4ccccc4-c4ccc(Cl)cc4)CC2)CC3)cc1S(=O)(=O)C(F)(F)F
87

----------
- measured-on: UniProt:Q07817
- Sequence (Q07817 whole entry): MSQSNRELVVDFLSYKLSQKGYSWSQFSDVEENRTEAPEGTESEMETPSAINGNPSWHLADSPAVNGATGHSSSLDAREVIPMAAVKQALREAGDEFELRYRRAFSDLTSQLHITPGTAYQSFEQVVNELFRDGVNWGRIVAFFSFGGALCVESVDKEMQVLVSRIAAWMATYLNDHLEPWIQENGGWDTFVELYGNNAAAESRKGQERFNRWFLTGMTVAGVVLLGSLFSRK
- assay-explanation: Inhibition of Bcl-xL/BAK (unknown origin) interaction
Reported IC50 is given for each of the following compounds.
The response must be a number in nM with no trailing unit.

Here is how some compounds turned out for IC50.
{"columns": ["compound", "IC50 / nM"],
 "data": [
  ["CN(C)CC[C@H](CSc1ccccc1)Nc1ccc(S(=O)(=O)Nc2nc(Cl)nc3c2CCN(C2CCN(Cc4ccccc4-c4ccc(Cl)cc4)CC2)C3)cc1S(=O)(=O)C(F)(F)F", 20],
  ["CN(C)CC[C@H](CSc1ccccc1)Nc1ccc(S(=O)(=O)Nc2ncnc3c2CCN(C2CCN(Cc4cc(F)ccc4-c4ccc(Cl)cc4)CC2)C3)cc1S(=O)(=O)C(F)(F)F", 74],
  ["CN(C)CC[C@H](CSc1ccccc1)Nc1ccc(S(=O)(=O)Nc2ncnc3c2CCN(C2CCN(Cc4cc(F)ccc4-c4ccc(Cl)cc4)CC2)C3=O)cc1S(=O)(=O)C(F)(F)F", 22],
  ["CN(C)CC[C@H](CSc1ccccc1)Nc1ccc(S(=O)(=O)Nc2ncnc3c2CCN(C2CCN(Cc4ccccc4-c4ccc(Cl)cc4)CC2)C3)cc1S(=O)(=O)C(F)(F)F", 24],
  ["CC(c1ccccc1-c1ccc(Cl)cc1)N1CCC(N2CCc3c(ncnc3NS(=O)(=O)c3ccc(N[C@H](CCN(C)C)CSc4ccccc4)c(S(=O)(=O)C(F)(F)F)c3)C2)CC1 (stereo partly specified)", 115]
]}

Please examine the following record next.
Short answer please: IC50, UniProt:Q07817, entry CN(C)CC[C@H](CSc1ccccc1)Nc1ccc(S(=O)(=O)Nc2nc(C(F)(F)F)nc3c2CCN(C2CCN(Cc4ccccc4-c4ccc(Cl)cc4)CC2)C3)cc1S(=O)(=O)C(F)(F)F
62

Every entry's value here was drawn from ChEMBL document CHEMBL2321763.
